test system: S. pneumoniae isolates; assay: Disk diffusion susceptibility (CLSI/EUCAST), Example 5; format: cell-based, Streptococcus pneumoniae; details: P21
Result Type: disk diffusion zone diameter

Ask | Look at this compound and give its reported disk diffusion zone diameter. `CO[C@H]1/C=C/O[C@@]2(C)Oc3c(C)c(O)c4c(O)c(c(/C=N/N5CCN(C)CC5)c(O)c4c3C2=O)NC(=O)/C(C)=C\C=C\[C@H](C)[C@H](O)[C@@H](C)[C@@H](O)[C@@H](C)[C@H](OC(C)=O)[C@@H]1C`
Reply | 32 mm

Ask | Given the entry `O=C(N[C@H](CO)[C@H](O)c1ccc([N+](=O)[O-])cc1)C(Cl)Cl` , report its measured disk diffusion zone diameter.
Reply | 35 mm

Ask | Sample `CCC[C@@H]1C[C@@H](C(=O)N[C@@H]([C@H]2O[C@H](SC)[C@H](O)[C@@H](O)[C@H]2O)[C@H](C)Cl)N(C)C1` — what was its disk diffusion zone diameter?
Reply | 25 mm

Ask | Need disk diffusion zone diameter of `CC1(C)S[C@@H]2[C@H](NC(=O)[C@H](N)c3ccccc3)C(=O)N2[C@H]1C(=O)O` , thanks.
Reply | 40 mm

Ask | So what's the measured disk diffusion zone diameter for this one? `CN[C@H](CC(C)C)C(=O)N[C@H]1C(=O)N[C@@H](CC(N)=O)C(=O)N[C@H]2C(=O)N[C@H]3C(=O)N[C@H](C(=O)N[C@H](C(=O)O)c4cc(O)cc(O)c4-c4cc3ccc4O)[C@H](O)c3ccc(c(Cl)c3)Oc3cc2cc(c3O[C@@H]2O[C@H](CO)[C@@H](O)[C@H](O)[C@H]2O[C@H]2C[C@](C)(N)[C@H](O)[C@H](C)O2)Oc2ccc(cc2Cl)[C@H]1O`
Reply | 21 mm

Ask | Please report the recorded disk diffusion zone diameter for `CN(C)[C@@H]1C(O)=C(C(N)=O)C(=O)[C@@]2(O)C(O)=C3C(=O)c4c(O)cccc4[C@@](C)(O)[C@H]3C[C@@H]12` .
Reply | 38 mm

Ask | Which measured disk diffusion zone diameter value corresponds to `CC[C@H]1OC(=O)[C@H](C)[C@@H](O[C@H]2C[C@@](C)(OC)[C@@H](O)[C@H](C)O2)[C@H](C)[C@@H](O[C@@H]2O[C@H](C)C[C@H](N(C)C)[C@H]2O)[C@](C)(O)C[C@@H](C)C(=O)[C@H](C)[C@@H](O)[C@]1(C)O` ?
Reply | 35 mm

Ask | Recorded disk diffusion zone diameter of `CC[C@H]1OC(=O)[C@H](C)[C@@H](O[C@H]2C[C@@](C)(OC)[C@@H](O)[C@H](C)O2)[C@H](C)[C@@H](O[C@@H]2O[C@H](C)C[C@H](N(C)C)[C@H]2O)[C@](C)(OC)C[C@@H](C)C(=O)[C@H](C)[C@@H](O)[C@]1(C)O` , please.
Reply | 38 mm

Ask | Please look up its disk diffusion zone diameter: `Cc1onc(-c2ccccc2)c1C(=O)N[C@@H]1C(=O)N2[C@@H]1SC(C)(C)[C@@H]2C(=O)O`
Reply | 28 mm
